assay: Cmax in healthy human at 2000 mg, iv administered as single dose as 1 hr iv infusion; assay type: ADME, organism-based; set-up: dose 2000 mg, route intravenous; settings: in vivo

smiles_code	Cmax
Cn1c(N)c(NC(=O)NCCN)c[n+]1CC1=C(C(=O)O)N2C(=O)[C@@H](NC(=O)/C(=N\OC(C)(C)C(=O)[O-])c3nsc(N)n3)[C@H]2SC1	128 µg/mL

###

assay: Drug recovery in urine of healthy human at 1000 mg, iv administered as 1 hr infusion every 8 hrs for 10 days measured on day 1; type: ADME, organism-based; settings: read-out: Activity
measurement_type: dose excreted at 1 day (%)

smiles_code	assay_result
Cn1c(N)c(NC(=O)NCCN)c[n+]1CC1=C(C(=O)O)N2C(=O)[C@@H](NC(=O)/C(=N\OC(C)(C)C(=O)[O-])c3nsc(N)n3)[C@H]2SC1	99.4

###

experiment: Clearance in healthy human at 500 mg, iv administered as 1 hr infusion every 8 hrs for 10 days measured on day 1; type: ADME, organism-based; conditions: in vivo

molecule	units	clearance
Cn1c(N)c(NC(=O)NCCN)c[n+]1CC1=C(C(=O)O)N2C(=O)[C@@H](NC(=O)/C(=N\OC(C)(C)C(=O)[O-])c3nsc(N)n3)[C@H]2SC1 [CEFTOLOZANE]	mL/min	94.6

###

assay: AUC (0 to infinity) in healthy human at 1000 mg, iv administered as 1 hr infusion every 8 hrs for 10 days measured on day 10; assay type: ADME, organism-based; design: dose 1000 mg, time infinity, route intravenous; details: plasma

compound	AUC(0-inf)
Cn1c(N)c(NC(=O)NCCN)c[n+]1CC1=C(C(=O)O)N2C(=O)[C@@H](NC(=O)/C(=N\OC(C)(C)C(=O)[O-])c3nsc(N)n3)[C@H]2SC1 [CEFTOLOZANE]	143 µg·h/mL

###

test: Cmax in healthy human at 500 mg, iv administered as 1 hr infusion every 8 hrs for 10 days measured on day 10; assay type: ADME, organism-based; parameters: dose 500 mg, route intravenous; conditions: in vivo
measurement_type: Cmax (ng/mL)

smiles_code	measurement_type	assay_result
Cn1c(N)c(NC(=O)NCCN)c[n+]1CC1=C(C(=O)O)N2C(=O)[C@@H](NC(=O)/C(=N\OC(C)(C)C(=O)[O-])c3nsc(N)n3)[C@H]2SC1	Cmax	33300

###

assay: Clearance in healthy human at 1000 mg, iv administered as single dose as 1 hr iv infusion; type: ADME, organism-based; settings: in vivo
measurement_type: clearance (mL/min)

compound	measurement_type	assay_result
Cn1c(N)c(NC(=O)NCCN)c[n+]1CC1=C(C(=O)O)N2C(=O)[C@@H](NC(=O)/C(=N\OC(C)(C)C(=O)[O-])c3nsc(N)n3)[C@H]2SC1 [CEFTOLOZANE]	clearance	110

###

experiment: Volume of distribution at steady state in healthy human at 1000 mg, iv administered as 1 hr infusion every 8 hrs for 10 days measured on day 10; assay type: ADME, organism-based; settings: in vivo

smiles_code	Vd
Cn1c(N)c(NC(=O)NCCN)c[n+]1CC1=C(C(=O)O)N2C(=O)[C@@H](NC(=O)/C(=N\OC(C)(C)C(=O)[O-])c3nsc(N)n3)[C@H]2SC1	17.1 L

###

assay: Volume of distribution at steady state in healthy human at 500 mg, iv administered as 1 hr infusion every 8 hrs for 10 days measured on day 10; assay type: ADME, organism-based; details: in vivo
measurement_type: Vd (L)

compound	assay_result
Cn1c(N)c(NC(=O)NCCN)c[n+]1CC1=C(C(=O)O)N2C(=O)[C@@H](NC(=O)/C(=N\OC(C)(C)C(=O)[O-])c3nsc(N)n3)[C@H]2SC1 [CEFTOLOZANE]	14
